B1: TPR t1 (parent)
chain: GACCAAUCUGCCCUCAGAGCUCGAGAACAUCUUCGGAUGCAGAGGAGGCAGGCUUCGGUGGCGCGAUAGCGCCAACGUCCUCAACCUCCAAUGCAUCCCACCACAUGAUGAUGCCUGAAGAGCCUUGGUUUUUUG

variants of: B1; test: polymerase ribozyme fitness, log enrichment relative to wild type (log ratio); higher = more active; in vitro selection for triplet polymerase activity
OBSERVABLE: polymerase ribozyme fitness (log ratio)
Quick one: just the number, no unit, thanks!

Study these solved cases before continuing.
MUTATION_CODE: G19U G110A
RESULT_VALUE: -4.35
//
MUTATION_CODE: C12G U55A C70U G113C
RESULT_VALUE: -3.9
//
MUTATION_CODE: C11G C49A G61A
RESULT_VALUE: 1.07
//
MUTATION_CODE: C89U A100U
RESULT_VALUE: -1.41

# polymerase ribozyme fitness (log ratio) (variant: G45A C114U ) is -2.37

# polymerase ribozyme fitness (log ratio) (variant: G45C C72U A90U G128C ) is -4.85

# polymerase ribozyme fitness (log ratio) (variant: G51U U55G ) is -3.24

# polymerase ribozyme fitness (log ratio) (variant: U9A A46U G63C C82G C86A ) is -1.25
